- Tested on: Mpl-expressing Ba/F3 cell line (human mpl gene)
- experiment-summary: Measurement of thrombopoietin (TPO) activity: viable cell count of Mpl-expressing Ba/F3 cell line (Cell Count Reagent SF, absorbance 450 nm)
- Type: cell-based
- condition: concentration corresponding to the maximum TPO activity value
Let's look at some compounds and their measured Concentration.
Please reply with the bare figure in µM and do not write the unit itself.

Recorded results for 4 compounds are shown here.
- compound: "NCCC[C@H](NC(=O)Cc1c[nH]c2ccccc12)C(=O)Nc1ccc(C(c2ccc(NC(=O)[C@H](CCCN)NC(=O)Cc3c[nH]c4ccccc34)cc2)c2ccc(NC(=O)[C@H](CCCN)NC(=O)Cc3c[nH]c4ccccc34)cc2)cc1.O=C(O)C(F)(F)F [Example 134]"
  numeric-result: 50
- compound: "Cc1[nH]c2ccccc2c1CC(=O)N[C@H](CCCNC(=N)N)C(=O)Nc1ccc(C(c2ccc(NC(=O)[C@@H](CCCNC(=N)N)NC(=O)Cc3c(C)[nH]c4ccccc34)cc2)c2ccc(NC(=O)[C@@H](CCCNC(=N)N)NC(=O)Cc3c(C)[nH]c4ccccc34)cc2)cc1.Cl (some centres unmarked) [Example 39]"
  numeric-result: 12.5
- compound: "COc1ccc2c(CC(=O)N[C@H](CCCCN)C(=O)Nc3ccc(C(c4ccc(NC(=O)[C@@H](CCCCN)NC(=O)Cc5c(C)[nH]c6cc(OC)ccc56)cc4)c4ccc(NC(=O)[C@@H](CCCCN)NC(=O)Cc5c(C)[nH]c6cc(OC)ccc56)cc4)cc3)c(C)[nH]c2c1.Cl [Example 146]"
  numeric-result: 25
- compound: "Cl.NCCCC[C@@H](NC(=O)c1cnccn1)C(=O)Nc1ccc(C(c2ccc(NC(=O)[C@@H](CCCCN)NC(=O)c3cnccn3)cc2)c2ccc(NC(=O)[C@@H](CCCCN)NC(=O)c3cnccn3)cc2)cc1 [Example 157]"
  numeric-result: 50

Now let's try a different one.
Reported Concentration ( Cl.N=C(N)NCCC[C@H](NC(=O)Cc1ccsc1)C(=O)Nc1ccc(C(c2ccc(NC(=O)[C@H](CCCNC(=N)N)NC(=O)Cc3ccsc3)cc2)c2ccc(NC(=O)[C@H](CCCNC(=N)N)NC(=O)Cc3ccsc3)cc2)cc1 (some centres unmarked) [Example 38] ) = 25

----------
- System: Mpl-expressing Ba/F3 cell line (human mpl gene)
- experiment-summary: Measurement of thrombopoietin (TPO) activity: viable cell count of Mpl-expressing Ba/F3 cell line (Cell Count Reagent SF, absorbance 450 nm)
- Assay type: cell-based
- condition: concentration corresponding to the maximum TPO activity value
assay-readout: Concentration (µM)
Provide only the numeric value, understood in µM.

- molecule: "Cc1[nH]c2ccccc2c1CC(=O)N[C@H](CCCCN)C(=O)Nc1ccc(C(c2ccc(NC(=O)[C@@H](CCCCN)NC(=O)Cc3c(C)[nH]c4ccccc34)cc2)c2ccc(NC(=O)[C@@H](CCCCN)NC(=O)Cc3c(C)[nH]c4ccccc34)cc2)cc1"
  Concentration (µM): 25
- molecule: "NCCCC[C@@H](NC(=O)Cc1c[nH]c2ccccc12)C(=O)Nc1ccc(N(c2ccc(NC(=O)[C@@H](CCCCN)NC(=O)Cc3c[nH]c4ccccc34)cc2)c2ccc(NC(=O)[C@@H](CCCCN)NC(=O)Cc3c[nH]c4ccccc34)cc2)cc1.O=C(O)C(F)(F)F"
  Concentration (µM): 25

Lab note: measured Concentration of `Cl.NCCCC[C@@H](NC(=O)Cc1ccsc1)C(=O)Nc1ccc(C(c2ccc(NC(=O)[C@@H](CCCCN)NC(=O)Cc3ccsc3)cc2)c2ccc(NC(=O)[C@@H](CCCCN)NC(=O)Cc3ccsc3)cc2)cc1` was 25

Notebook: `Cl.NCCCC[C@H](NC(=O)Cc1ccc(O)cc1)C(=O)Nc1ccc(C(c2ccc(NC(=O)[C@H](CCCCN)NC(=O)Cc3ccc(O)cc3)cc2)c2ccc(NC(=O)[C@H](CCCCN)NC(=O)Cc3ccc(O)cc3)cc2)cc1` , Concentration read as 50

In plain terms, `CN(C)CCCC[C@H](NC(=O)Cc1c[nH]c2ccccc12)C(=O)Nc1ccc(C(c2ccc(NC(=O)[C@H](CCCCN(C)C)NC(=O)Cc3c[nH]c4ccccc34)cc2)c2ccc(NC(=O)[C@H](CCCCN(C)C)NC(=O)Cc3c[nH]c4ccccc34)cc2)cc1` has a documented Concentration of 25

Item: `Cl.NCCCC[C@@H](NC(=O)Cc1cccc(O)c1)C(=O)Nc1ccc(C(c2ccc(NC(=O)[C@@H](CCCCN)NC(=O)Cc3cccc(O)c3)cc2)c2ccc(NC(=O)[C@@H](CCCCN)NC(=O)Cc3cccc(O)c3)cc2)cc1` | Concentration: 25

Reported Concentration of `Cl.NCCCC[C@H](NC(=O)Cc1c[nH]c2ccccc12)C(=O)Nc1ccc(C(c2ccc(NC(=O)[C@H](CCCCN)NC(=O)Cc3c[nH]c4ccccc34)cc2)c2ccc(NC(=O)[C@H](CCCCN)NC(=O)Cc3c[nH]c4ccccc34)cc2)cc1` : 25

So, `Cc1[nH]c2ccccc2c1CC(=O)N[C@@H](CCCCN)C(=O)Nc1ccc(C(c2ccc(NC(=O)[C@H](CCCCN)NC(=O)Cc3c(C)[nH]c4ccccc34)cc2)c2ccc(NC(=O)[C@H](CCCCN)NC(=O)Cc3c(C)[nH]c4ccccc34)cc2)cc1.Cl` ? Its Concentration was 21

Entry source: patent US6887890B2
